biological target: Aurora kinase A (Homo sapiens, UniProt O14965); type: functional;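 also: value from the Navigating the Kinome kinase panel profiling, panel entry STK6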
Sequence (O14965 whole entry): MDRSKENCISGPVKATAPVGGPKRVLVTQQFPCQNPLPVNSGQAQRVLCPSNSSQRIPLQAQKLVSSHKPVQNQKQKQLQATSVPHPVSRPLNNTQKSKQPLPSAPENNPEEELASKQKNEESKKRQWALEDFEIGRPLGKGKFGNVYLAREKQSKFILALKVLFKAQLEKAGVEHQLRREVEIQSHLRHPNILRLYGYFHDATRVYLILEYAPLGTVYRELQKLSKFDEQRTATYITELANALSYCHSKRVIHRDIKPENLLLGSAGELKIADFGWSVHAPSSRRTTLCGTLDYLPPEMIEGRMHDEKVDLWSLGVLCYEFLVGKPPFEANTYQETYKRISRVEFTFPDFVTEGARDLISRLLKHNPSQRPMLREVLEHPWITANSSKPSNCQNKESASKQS
Active and inactive are the calls of the source.
Pick one: t = active, f = inactive

compound	qualitative.label
CCC1CC(NS(=O)(=O)C2CC2)CC1c1ncc2cnc3[nH]ccc3n12 (centres undefined)	t

Query: Please let me know the test result on file for "O=C(Nc1cccc(C(F)(F)F)n1)Nc1ccnc2cc(Cl)ccc12" .
Result: f

Query: Now the compound "O=c1[nH]c2cc(Br)cnc2[nH]1"
Result: t

Query: Now the compound "O=C(Nc1cccc(C(F)(F)F)n1)Nc1ccnc2cc(OC(F)F)ccc12"
Result: f

====

biological target: Polyadenylate-binding protein 1 (Homo sapiens, UniProt P11940); assay: PABP1 MLLE–PAM2 binding inhibitor potency, dose response, biochemical, fluorescence polarization, FITC-PAM2 peptide (AID 602259); type: functional; conditions: read-out: IC50_Mean
Sequence (P11940 whole entry): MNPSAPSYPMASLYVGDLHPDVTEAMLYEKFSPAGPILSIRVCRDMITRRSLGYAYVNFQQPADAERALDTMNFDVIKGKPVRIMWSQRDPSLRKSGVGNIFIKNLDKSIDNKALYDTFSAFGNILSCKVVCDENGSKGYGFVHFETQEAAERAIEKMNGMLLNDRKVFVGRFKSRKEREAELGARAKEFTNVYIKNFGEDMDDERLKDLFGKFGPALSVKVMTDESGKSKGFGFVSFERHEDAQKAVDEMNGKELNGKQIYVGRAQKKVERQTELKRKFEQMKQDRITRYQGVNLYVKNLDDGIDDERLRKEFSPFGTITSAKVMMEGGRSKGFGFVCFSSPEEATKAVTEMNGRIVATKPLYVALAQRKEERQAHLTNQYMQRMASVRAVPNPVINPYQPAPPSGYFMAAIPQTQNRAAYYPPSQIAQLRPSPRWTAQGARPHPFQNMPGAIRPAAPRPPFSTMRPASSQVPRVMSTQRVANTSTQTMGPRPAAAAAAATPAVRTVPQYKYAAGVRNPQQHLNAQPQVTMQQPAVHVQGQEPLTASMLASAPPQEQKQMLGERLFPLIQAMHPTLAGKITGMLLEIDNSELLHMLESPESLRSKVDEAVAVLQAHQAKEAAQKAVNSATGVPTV
Calls of active or inactive are those of the source.
metric: IC50

compound	metric	measurement
CN(Cc1cnc2nc(N)nc(N)c2n1)c1ccc(C(=O)NC(CCC(=O)O)C(=O)O)cc1 (stereo not given)	IC50	41.6 µM (inactive)
COc1nnc(-c2ccccc2)s1	IC50	> 66 µM (inactive)
O=c1[nH]c2cc3ccccc3cc2nc1C(F)(F)F	IC50	46.2 µM (inactive)
CCC(C)N(C(=O)CSc1ccc(NC(C)=O)cc1)C1CCS(=O)(=O)C1 (stereo not given)	IC50	> 66 µM (inactive)

Query: Give the measured IC50 of "Cc1sc2nc3ccc(NCc4ccco4)nn3c(=O)c2c1C" .
Result: > 66 µM (inactive)
